Assay: NCI Yeast Anticancer Drug Screen. Data for the rad50 strain (AID 155);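 further: 0% = growth of vehicle-only cultures of the same strain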
Conditions: S. cerevisiae rad50 strain growth inhibition; at 50.0 µM; hits give high values
Compounds without any hit were thinned out: in the full panel of roughly 79,000, 15% have a hit.
growth inhibition values for the molecules below.
Your answer should be a plain number; it is taken to be in %.

CC(=O)CC(C)=O.CC(=O)CC(C)=O.CC(=O)CC(C)=O.[Tb]: -0.8

Q. Give its growth inhibition value. Item: O=C(Nc1cccc(S(=O)(=O)F)c1)c1cccc([N+](=O)[O-])c1
A. 96.5

Q. Now the same for CCCCCCCCCCOC(=O)c1ccccc1C(=O)OCCCCCCCCCC
A. -22

Q. Now the same for O=C(O)/C=C/c1ccc(S(=O)(=O)F)cc1
A. 36.4

Q. Now the same for O=[N+]([O-])c1ccc(N=Nc2ccc(N(CCCl)CCCl)cc2)cc1
A. -4.8

Q. Now the same for CNc1cccc2ccccc12
A. -3.3

* * *

Test: NCI Yeast Anticancer Drug Screen. Data for the mlh1 rad18 strain (AID 175)
Details: S. cerevisiae mlh1 rad18 strain growth inhibition; at 50.0 µM; hits give high values
About 79,000 compounds went through this panel and 15% of them were active in at least one assay; those are over-represented in the sample as a whole.
READOUT_LABEL: growth inhibition (%)
Your answer should be a plain number; it is taken to be in %.

Example entries and their recorded answers appear below.
CCCCCCP(=O)(CCCCCC)CCCCCC (tested in a mixture with another compound): 84.2
S=[As](c1ccc(-c2ccccc2)cc1)(c1ccc(-c2ccccc2)cc1)c1ccc(-c2ccccc2)cc1: -18.2
O=[N+]([O-])c1c(Cl)cc(Cl)c([N+](=O)[O-])c1Cl: 32.1
COc1c(O)cc2c(c1OC)-c1ccc(SC)c(=O)cc1C(NC(C)=O)CC2 (stereo not given): 23.9

Next compound, please.
Q. Give its growth inhibition value. Item: CCCCC(CC)COP(OCC(CC)CCCC)OCC(CC)CCCC (stereo not given)
A. -6.95

* * *

Experiment: NCI Yeast Anticancer Drug Screen. Data for the mec2-1 strain (AID 157)
Settings: S. cerevisiae mec2-1 strain, at 50.0 µM
Experimental: Growth inhibition of yeast strains with defined genetic alterations is measured as a screen for potential anti-cancer activity. Selected strains with alterations in DNA damage repair or cell cycle control were exposed to compounds and growth inhibition was measured relative to vehicle treated controls. The strain used in this assay is mec2-1
Compounds without any hit were thinned out: in the full panel of roughly 79,000, 15% have a hit. Calls of active or inactive are those of the source. Cut-off read from the data, not from the text of the source: active = growth inhibition above about 70%; inactive = the rest.
Answer with one of the outcomes given here: Yes for active, No for inactive

CCC(=O)OC1(c2ccccc2)CCN(CCC(=O)c2ccccc2)CC1: No
O=C1NC2(CCCC2)C(=O)N1CCCN(CCCl)CCCl: No

Q. Hey, what did the test say about CN(C)P(=O)(CC(O)c1ccccc1)N(C)C (centres undefined) ?
A. No

Q. Now the same for CCN(c1ccccc1)P(I)(c1ccccc1)(c1ccccc1)c1ccccc1
A. Yes

Q. Now the same for CCC(=O)OC1(c2ccccc2)CCN(CCC(=O)c2ccccc2)CC1C (centres undefined)
A. No

Q. Now the same for Oc1ccccc1C=NCCN=Cc1ccccc1O
A. No

Q. Now the same for C[C@]12CC[C@H]3[C@@H](CC[C@H]4N(CCCl)CCC[C@]34C)[C@@H]1CC[C@@H]2O
A. No

Q. Now the same for O=C(O)CNCP(=O)(O)O
A. No
